Let's look at some compounds and their measured MIC.
Tested on: Staphylococcus aureus
Assay: Antibacterial activity against methicillin sensitive Staphylococcus aureus ATCC 33591
Type: functional
readout-label: MIC

[[record]]
smiles_data = "O=C(Nc1ccc(F)cc1)Nc1ccc(Cl)c(C(F)(F)F)c1"
result = "6.01 µM"

[[record]]
smiles_data = "O=C(Nc1ccc(Cl)c(C(F)(F)F)c1)Nc1cc(F)c(F)c(F)c1F"
result = "0.31 µM"

[[record]]
smiles_data = "O=C(Nc1ccc(Cl)c(C(F)(F)F)c1)Nc1cc(Cl)ccc1F"
result = "2.72 µM"

[[record]]
smiles_data = "O=C(Nc1ccc(OC(F)(F)F)cc1)Nc1ccc(Cl)c(C(F)(F)F)c1"
result = "1.25 µM"

[[record]]
smiles_data = "O=C(Nc1ccc(OC(F)F)cc1)Nc1ccc(Cl)c(C(F)(F)F)c1"
result = "10.5 µM"


---

System: Staphylococcus epidermidis
Assay: Antibacterial activity against methicillin resistant Staphylococcus epidermidis 19-1
Assay type: functional
Active and inactive are the calls of the source. The calls are words filed in the database; no cut-off is given here.
readout-label: MIC

[[record]]
smiles_data = "CNC(=O)c1cc(Oc2ccc(NC(=O)Nc3cc(C(F)(F)F)ccc3OC)cc2)ccn1"
readout_label = "MIC"
result = "inactive"

[[record]]
smiles_data = "O=C(Nc1ccc(Cl)c(C(F)(F)F)c1)Nc1cc(Cl)ccc1F"
readout_label = "MIC"
result = "2.72 µM"

[[record]]
smiles_data = "O=C(Nc1ccc(C(F)(F)F)cc1)Nc1ccc(Cl)c(C(F)(F)F)c1"
readout_label = "MIC"
result = "10.4 µM"

[[record]]
smiles_data = "O=C1N(c2ccc(O)cc2)CCN1c1ccc(Cl)c(C(F)(F)F)c1"
readout_label = "MIC"
result = "inactive"

[[record]]
smiles_data = "CNC(=O)c1cc(Oc2ccc(N3CCN(c4ccc(Cl)c(C(F)(F)F)c4)C3=O)cc2)ccn1"
readout_label = "MIC"
result = "inactive"

[[record]]
smiles_data = "CN(C(=O)Nc1ccc(Cl)c(C(F)(F)F)c1)c1cccc(Cl)c1F"
readout_label = "MIC"
result = "inactive"


---

Tested on: Staphylococcus aureus
Test: Antibacterial activity against methicillin sensitive Staphylococcus aureus ATCC 33591
Format: functional
Calls of active or inactive are those of the source. The calls are words filed in the database; no cut-off is given here.
readout-label: MIC

[[record]]
smiles_data = "O=C(Nc1ccc(OC(F)(F)F)cc1)N1CCN(c2ccc(Cl)c(C(F)(F)F)c2)C1=O"
result = "inactive"

[[record]]
smiles_data = "O=C(Nc1ccc(Cl)c(F)c1)Nc1ccc(Cl)c(C(F)(F)F)c1"
result = "1.36 µM"

[[record]]
smiles_data = "CN(C(=O)Nc1ccc(Cl)c(C(F)(F)F)c1)c1cccc(Cl)c1F"
result = "inactive"

[[record]]
smiles_data = "O=C(Nc1ccc(Cl)c(C(F)(F)F)c1)Nc1ccc(Cl)c(C(F)(F)F)c1"
result = "1.2 µM"


---

Tested on: Staphylococcus aureus
Assay: Antibacterial activity against methicillin resistant Staphylococcus aureus ATCC 43300
Type: functional
The source made the active and inactive calls. The rule behind the calls is not given here.
readout-label: MIC

[[record]]
smiles_data = "CN(C(=O)Nc1ccc(Cl)c(C(F)(F)F)c1)c1cccc(Cl)c1F"
tested_target = "Staphylococcus aureus"
readout_label = "MIC"
result = "inactive"

[[record]]
smiles_data = "O=C1N(c2ccc(O)cc2)CCN1c1ccc(Cl)c(C(F)(F)F)c1"
tested_target = "Staphylococcus aureus"
readout_label = "MIC"
result = "inactive"

[[record]]
smiles_data = "O=C(Nc1ccc(Cl)cc1)Nc1ccc(Cl)c(C(F)(F)F)c1"
tested_target = "Staphylococcus aureus"
readout_label = "MIC"
result = "0.72 µM"

[[record]]
smiles_data = "O=C(Nc1ccc(Cl)c(F)c1)Nc1ccc(Cl)c(C(F)(F)F)c1"
tested_target = "Staphylococcus aureus"
readout_label = "MIC"
result = "2.72 µM"

[[record]]
smiles_data = "COc1ccc(NC(=O)Nc2ccc(Cl)c(C(F)(F)F)c2)cc1"
tested_target = "Staphylococcus aureus"
readout_label = "MIC"
result = "inactive"

[[record]]
smiles_data = "CNC(=O)c1cc(Oc2ccc(NC(=O)Nc3ccc(Cl)c(C(F)(F)F)c3)cc2)ccn1"
tested_target = "Staphylococcus aureus"
readout_label = "MIC"
result = "17.2 µM"

[[record]]
smiles_data = "CNC(=O)c1cc(Oc2ccc(NC(=O)Nc3cc(C(F)(F)F)ccc3OC)cc2)ccn1"
tested_target = "Staphylococcus aureus"
readout_label = "MIC"
result = "inactive"

[[record]]
smiles_data = "CNC(=O)c1cc(Oc2ccc(NC(=O)Nc3cccc(C(F)(F)F)c3)cc2)ccn1"
tested_target = "Staphylococcus aureus"
readout_label = "MIC"
result = "inactive"

[[record]]
smiles_data = "CNC(=O)c1cc(Oc2ccc(N3CCN(c4ccc(Cl)c(C(F)(F)F)c4)C3=O)cc2)ccn1"
tested_target = "Staphylococcus aureus"
readout_label = "MIC"
result = "inactive"

[[record]]
smiles_data = "O=C(Nc1ccc(OC(F)F)cc1)Nc1ccc(Cl)c(C(F)(F)F)c1"
tested_target = "Staphylococcus aureus"
readout_label = "MIC"
result = "10.5 µM"

[[record]]
smiles_data = "O=C(Nc1ccc(Cl)c(C(F)(F)F)c1)Nc1cc(Cl)ccc1F"
tested_target = "Staphylococcus aureus"
readout_label = "MIC"
result = "2.72 µM"


---

Test system: Staphylococcus aureus
Experiment: Antibacterial activity against vancomycin intermediate and methicillin resistant Staphylococcus aureus ATCC 700698
Type: functional
Calls of active or inactive are those of the source. The calls are words filed in the database; no cut-off is given here.
readout-label: MIC

[[record]]
smiles_data = "O=C(Nc1ccc(Cl)c(F)c1)Nc1ccc(Cl)c(C(F)(F)F)c1"
result = "2.72 µM"

[[record]]
smiles_data = "O=C(Nc1ccc(Cl)c(C(F)(F)F)c1)Nc1cc(Cl)c(F)cc1F"
result = "2.6 µM"

[[record]]
smiles_data = "CNC(=O)c1cc(Oc2ccc(NC(=O)Nc3cccc(C(F)(F)F)c3)cc2)ccn1"
result = "inactive"

[[record]]
smiles_data = "O=C(Nc1ccc2c(c1)OCO2)Nc1ccc(Cl)c(C(F)(F)F)c1"
result = "44.6 µM"

[[record]]
smiles_data = "O=C(Nc1ccc(Cl)c(C(F)(F)F)c1)Nc1cc(F)c(F)c(F)c1F"
result = "0.31 µM"

[[record]]
smiles_data = "CN(C(=O)Nc1cccc(Cl)c1F)c1ccc(Cl)c(C(F)(F)F)c1"
result = "inactive"

[[record]]
smiles_data = "O=C(Nc1ccc(C(F)(F)F)cc1)Nc1ccc(Cl)c(C(F)(F)F)c1"
result = "20.9 µM"

[[record]]
smiles_data = "CNC(=O)c1cc(Oc2ccc(NC(=O)Nc3ccc(Cl)c(C(F)(F)F)c3)cc2)ccn1"
result = "17.2 µM"

[[record]]
smiles_data = "O=C1N(c2ccc(O)cc2)CCN1c1ccc(Cl)c(C(F)(F)F)c1"
result = "inactive"

[[record]]
smiles_data = "CN(C(=O)Nc1ccc(Cl)c(C(F)(F)F)c1)c1cccc(Cl)c1F"
result = "inactive"


Origin of values: ChEMBL document CHEMBL5223117
